- Test protocol: Liver microsomes stability, dog
- Condition label: dog, microsomes
Endpoint: microsomal CLint at 2 μM (µL/min/mg)

[[record]]
compound = "CCCCC/C=C\\C/C=C\\CCCCCCCC(=O)n1cc(CCN(C)C)c2ccccc21"
endpoint = "microsomal CLint at 2 μM"
observed_result = 19

[[record]]
compound = "[2H]C([2H])(c1cn(C(=O)CCCCCCC/C=C\\C/C=C\\CCCCC)c2ccccc12)[C@H]1CCCN1C([2H])([2H])[2H]"
endpoint = "microsomal CLint at 2 μM"
observed_result = 31.3

[[record]]
compound = "CCCCC/C=C\\C/C=C\\CCCCCCCC(=O)n1cc(C[C@H]2CCCN2C)c2ccccc21"
endpoint = "microsomal CLint at 2 μM"
observed_result = 28.4

[[record]]
compound = "CCCCC/C=C\\C/C=C\\CCCCCCCC(=O)n1cc(C[C@H]2CCCN2C)c2cc(OC)ccc21"
endpoint = "microsomal CLint at 2 μM"
observed_result = 34.6


====

- Test protocol: Liver microsomes stability, mouse
- Condition label: Mouse, Without NADPH, 60 min
- Experimental: The objective of this study was to estimate in vitro metabolic stability of representative compounds of the application in pooled human and male mouse liver microsomes. The concentrations of parent compounds in reaction systems were evaluated by LC-MS/MS for estimating the stability in pooled human and male mouse liver microsomes. The in vitro intrinsic clearances of test compounds were determined as well. […] The in vitro half-life (in vitro t1/2) was determined from the slope value: […]
Endpoint: Remaining Percentage (%)

[[record]]
compound = "CCCCC/C=C\\C/C=C\\CCCCCCCC(=O)n1cc(C[C@H]2CCCN2C)c2cc(OC)ccc21"
units = "%"
observed_result = 91.07

[[record]]
compound = "CCCCC/C=C\\C/C=C\\CCCCCCCC(=O)n1cc(CCN(C)C)c2ccccc21"
units = "%"
observed_result = 85.47

[[record]]
compound = "[2H]C([2H])(c1cn(C(=O)CCCCCCC/C=C\\C/C=C\\CCCCC)c2ccccc12)[C@H]1CCCN1C([2H])([2H])[2H]"
units = "%"
observed_result = 80.93

[[record]]
compound = "CCCCC/C=C\\C/C=C\\CCCCCCCC(=O)n1cc(C[C@H]2CCCN2C)c2ccccc21"
units = "%"
observed_result = 90.42


====

Catalogue of half-life at 2 μM values
- Test protocol: Liver microsomes stability, rat
- Condition label: rat, microsomes
Endpoint: half-life at 2 μM

[[record]]
compound = "CCCCC/C=C\\C/C=C\\CCCCCCCC(=O)n1cc(C[C@H]2CCCN2C)c2ccccc21"
endpoint = "half-life at 2 μM"
observed_result = "0.917 h"

[[record]]
compound = "CCCCC/C=C\\C/C=C\\CCCCCCCC(=O)n1cc(C[C@H]2CCCN2C)c2cc(OC)ccc21"
endpoint = "half-life at 2 μM"
observed_result = "2.16 h"

[[record]]
compound = "CCCCC/C=C\\C/C=C\\CCCCCCCC(=O)n1cc(CCN(C)C)c2ccccc21"
endpoint = "half-life at 2 μM"
observed_result = "2.45 h"

[[record]]
compound = "[2H]C([2H])(c1cn(C(=O)CCCCCCC/C=C\\C/C=C\\CCCCC)c2ccccc12)[C@H]1CCCN1C([2H])([2H])[2H]"
endpoint = "half-life at 2 μM"
observed_result = "0.764 h"

